Measured On: T1, GFP-MTase (M.EcoKI M2S1 with EGFP fused to C-terminus of HsdS) (Escherichia coli? (EcoKI; expressed in …, UniProt P08957;P05719 1-529;1-464)
T1 sequence 1: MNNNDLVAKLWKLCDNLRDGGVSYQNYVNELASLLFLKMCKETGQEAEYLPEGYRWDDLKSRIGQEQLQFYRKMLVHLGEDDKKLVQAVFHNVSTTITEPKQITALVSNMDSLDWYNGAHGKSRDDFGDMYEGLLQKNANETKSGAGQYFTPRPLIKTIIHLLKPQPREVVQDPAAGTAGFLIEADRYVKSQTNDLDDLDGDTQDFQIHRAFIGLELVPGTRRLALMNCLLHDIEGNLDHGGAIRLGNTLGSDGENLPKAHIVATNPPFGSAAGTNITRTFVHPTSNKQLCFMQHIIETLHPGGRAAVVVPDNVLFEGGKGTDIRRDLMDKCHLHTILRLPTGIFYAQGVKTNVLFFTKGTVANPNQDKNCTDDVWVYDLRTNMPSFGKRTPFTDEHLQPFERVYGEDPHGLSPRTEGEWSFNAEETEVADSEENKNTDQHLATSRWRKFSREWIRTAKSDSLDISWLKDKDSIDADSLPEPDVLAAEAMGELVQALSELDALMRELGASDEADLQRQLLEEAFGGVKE
T1 sequence 2: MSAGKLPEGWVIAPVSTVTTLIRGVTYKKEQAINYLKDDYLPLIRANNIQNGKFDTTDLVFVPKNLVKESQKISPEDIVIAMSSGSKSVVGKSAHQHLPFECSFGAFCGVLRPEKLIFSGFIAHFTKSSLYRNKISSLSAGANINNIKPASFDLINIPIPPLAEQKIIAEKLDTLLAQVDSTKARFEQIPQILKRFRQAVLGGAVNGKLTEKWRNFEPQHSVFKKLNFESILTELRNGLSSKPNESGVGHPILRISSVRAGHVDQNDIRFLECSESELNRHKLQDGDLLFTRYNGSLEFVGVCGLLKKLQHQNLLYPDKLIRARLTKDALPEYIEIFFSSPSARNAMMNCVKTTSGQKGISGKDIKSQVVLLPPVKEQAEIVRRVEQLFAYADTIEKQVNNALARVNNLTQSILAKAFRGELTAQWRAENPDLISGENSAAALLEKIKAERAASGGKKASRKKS
Assay Text: FRET continuous variation titration; no NaCl; 6 mM Mg2+; 1:1 complex; 20 mM Tris-HCl pH 8.0, 6 mM MgCl2, 7 mM 2-mercaptoethanol, NaCl 0-100 mM (0 for the Kd), 20 or 25 °C
Assay Setup: protein: recombinant; tags: EGFP-His6 at C-terminus of HsdS; chain copies: 2;1; label: 5'-HEX on top strand; blunt
pKd: −log10 of the molar value.
Property Label: pKd

{"Binder": "21TH21B (dsDNA) DNA 1: GCCTAACCACGTGGTGCGTAC DNA 2: GTACGCACCACGTGGTTAGGC", "Result": 7.72}

These entries and their values trace back to paper PMC2914225.
